Attribution: patent US20150376286A1

I'd be grateful if you could share measured pKi for these entries.
Test System: T1, human CGRP receptor (CRLR + RAMP1) (human, UniProt Q16602 23-461; O60894 27-148)
T1 construct: also called hCGRP R; huCGRP R
Assay Summary: 125I-CGRP competition binding, HTB-10 cell membranes
Answers are plain numbers, as −log10 of the molar value.

{"Binder": "2E7 (antibody, human IgG2, kappa, V domains shown, also called 02E7; 02E7.2) VH: EVQLLESGGGLVQPGESLRLSCAASGFTFSSYAMSWVRQAPGKGLEWVSAISGSGGRTYYADSVKGRFTISRDNSKNTLYLQMNSLRAEDTAVYYCAKDQREVGPYSSGWYDYYYGMDVWGQGTTVTVSS VL: DIQMTQSPSSLSASVGDRVTITCRASQGIRNDLGWFQQKPGKAPKRLIYAASSLQSGVPSRFSGSGSGTEFTLTISSLQPEDLATYYCLQYNIYPWTFGQGTKVEIKR", "pKi": 9.93}
{"Binder": "12E8 (antibody, human IgG2, kappa, V domains shown, also called 12E8.2) VH: QVQLVESGGGVVQPGRSLRLSCAASGFTFSSYGMHWVRQAPGKGLEWVAVISYDGSHESYADSVKGRFTISRDISKNTLYLQMNSLRAEDTAVYFCARERKRVTMSTLYYYFYYGMDVWGQGTTVTVSS VL: DITLTQTPLSLSVSPGQPASISCKSSQSLLHSDGRNYLYWYLQKPGQPPQLLIYEVSNRFSGLPDRFSGSGSGTDFTLKISRVEAEDVGIYYCMQSFPLPLTFGGGTKVEIKR", "pKi": 10.01}
{"Binder": "12G8 (antibody, human IgG2, lambda, V domains shown, also called 12G8.2) VH: QVQLVESGGGVVQPGRSLRLSCAASGFTFSSFGMHWVRQAPGKGLEWVAVISFDGSIKYSVDSVKGRFTISRDNSKNTLFLQMNSLRAEDTAVYYCARDRLNYYDSSGYYHYKYYGLAVWGQGTTVTVSS VL: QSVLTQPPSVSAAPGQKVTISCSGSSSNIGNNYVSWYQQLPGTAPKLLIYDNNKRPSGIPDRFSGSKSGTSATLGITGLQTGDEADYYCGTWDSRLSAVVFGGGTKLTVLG", "pKi": 10.77}
{"Binder": "1E11 (antibody, human IgG2, lambda, V domains shown, also called 01E11; 01E11.2) VH: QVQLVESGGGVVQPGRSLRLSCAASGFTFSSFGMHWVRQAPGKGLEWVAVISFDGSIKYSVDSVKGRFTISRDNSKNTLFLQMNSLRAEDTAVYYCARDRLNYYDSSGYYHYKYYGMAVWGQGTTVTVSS VL: QSVLTQPPSVSEAPGQKVTISCSGSSSNIGNNYVSWYQQLPGTAPKLLIYDNNKRPSGIPDRFSGSKSGTSATLGITGLQTGDEADYYCGTWDSRLSAVVFGGGTKLTVLG", "pKi": 10.52}
{"Binder": "9D4 (antibody, human IgG2, lambda, V domains shown, also called 09D4; 09D4.2) VH: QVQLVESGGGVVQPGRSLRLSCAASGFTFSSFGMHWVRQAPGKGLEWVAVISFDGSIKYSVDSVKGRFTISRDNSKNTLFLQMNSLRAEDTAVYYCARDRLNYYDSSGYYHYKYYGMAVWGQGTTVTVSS VL: QSVLTQPPSVSAAPGQKVTISCSGSSSNIGNNYVSWYQQFPGTAPKLLIYDNNKRPSGIPDRFSGSKSGTSATLGITGLQTGDEADYYCGTWDSRLSAVVFGGGTKLTVLG", "pKi": 10.64}

Query block: Item under review: 13H2 (antibody, human IgG2, kappa, V domains shown, also called 13H2.2) VH: EVQLVESGGGLVKPGGSLRLSCAASGYTFSTYSMNWVRQAPGKGLEWVSSISSSSSYRYYADSVKGRFTISRDNAKNSLYLQMSSLRAEDTAVYYCAREGVSGSSPYSISWYDYYYGMDVWGQGTTVTVSS VL: DIQMTQSPSSLSASVGDRVTITCRASQGIRKDLGWYQQKPGKAPKRLIYGASSLQSGVPSRFSGSGSGTEFTLTISSLQPEDFATYYCLQYNSFPWTFGQGTKVEIKR . Reported pKi?
Result block: 10.48
